Origin of values: patent US20220389013A1

This section presents compounds with their documented efflux ratio at 90 min, 10 μM values.
Assay: Caco-2 cell transmembrane transport experiment
Conditions: human, Caco-2, pH 7.4
Answer as a number with no unit attached.

These solved cases illustrate the format of a correct answer.
- Compound: "C=CC(=O)N1CCN(c2nc(=O)n(-c3c(C)ccnc3C(C)C)c3nc(-c4c(F)ccc5ccoc45)c(F)cc23)[C@@H](C)C1 (single isomer, unassigned)"
  Observed result: 1.19
- Compound: "C=CC(=O)N1CCN(c2nc(=O)n(-c3c(C)ccnc3C(C)C)c3nc(-c4c(F)ccc5ccoc45)c(Cl)cc23)[C@@H](C)C1 (single isomer, unassigned)"
  Observed result: 1.12
- Compound: "C=CC(=O)N1C[C@H](C)N(c2nc(=O)n(-c3c(C)ccnc3C(C)C)c3nc(-c4c(F)c(F)cc5ccoc45)c(Cl)cc23)C[C@H]1C (single isomer, unassigned)"
  Observed result: 1.92
- Compound: "C=CC(=O)N1C[C@H](C)N(c2nc(=O)n(-c3c(C)ccnc3C(C)C)c3nc(-c4c(F)ccc5ccoc45)c(Cl)cc23)C[C@H]1C (single isomer, unassigned)"
  Observed result: 1.08

# context switch: different compound, same efflux ratio at 90 min, 10 μM
Request: Any idea what efflux ratio at 90 min, 10 μM was measured for C=CC(=O)N1CCN(c2nc(=O)n(-c3c(C)ccnc3C(C)C)c3nc(-c4c(F)c(F)cc5ccoc45)c(Cl)cc23)[C@@H](C)C1 (single isomer, unassigned) ?
Response: 2.08

----------
Experiment: in vitro
Settings: human, Caco-2, pH 7.4, Papp B-A Sample_02
Structures can show the parent of a compound that is named as a salt.
Examples of compounds with documented Papp B→A at 90 min, 10 μM follow.
Write it as a number; the unit ×10⁻⁶ cm/s goes unstated.

Request: Quick one: Papp B→A at 90 min, 10 μM of COCCc1ccc(OCC(O)CNC(C)C)cc1 (centres unmarked) [Metoprolol Tartrate] ?
Response: 35.4

Request: Entry CC[C@H]1OC(=O)[C@H](C)[C@@H](O[C@H]2C[C@@](C)(OC)[C@@H](O)[C@H](C)O2)[C@H](C)[C@@H](O[C@@H]2O[C@H](C)C[C@H](N(C)C)[C@H]2O)[C@](C)(O)C[C@@H](C)C(=O)[C@H](C)[C@@H](O)[C@]1(C)O has what Papp B→A at 90 min, 10 μM?
Response: 15.5

----------
Test: Caco-2 cell transmembrane transport experiment
Conditions: human, Caco-2, pH 7.4, Papp B-A mean value, 10 μM, pH 7.4, 37° C., 90 min, basolateral to apical
Measured parameter: Papp B→A at 90 min, 10 μM (×10⁻⁶ cm/s)
Report only the number, with the unit ×10⁻⁶ cm/s understood.

For orientation, consider the following solved cases.
- Molecule: "C=CC(=O)N1C[C@H](C)N(c2nc(=O)n(-c3c(C)ccnc3C(C)C)c3nc(-c4c(F)ccc5ccoc45)c(Cl)cc23)C[C@H]1C (single isomer, unassigned)"
  Display unit: "×10⁻⁶ cm/s"
  Papp B→A at 90 min, 10 μM: 21.9
- Molecule: "C=CC(=O)N1CCN(c2nc(=O)n(-c3c(C)ccnc3C(C)C)c3nc(-c4c(F)ccc5ccoc45)c(Cl)cc23)[C@@H](C)C1 (single isomer, unassigned)"
  Display unit: "×10⁻⁶ cm/s"
  Papp B→A at 90 min, 10 μM: 20.6
- Molecule: "C=CC(=O)N1C[C@H](C)N(c2nc(=O)n(-c3c(C)ccnc3C(C)C)c3nc(-c4c(F)c(F)cc5ccoc45)c(Cl)cc23)C[C@H]1C (single isomer, unassigned)"
  Display unit: "×10⁻⁶ cm/s"
  Papp B→A at 90 min, 10 μM: 20.8
- Molecule: "C=CC(=O)N1CCN(c2nc(=O)n(-c3c(C)ccnc3C(C)C)c3nc(-c4c(F)ccc5ccoc45)c(F)cc23)[C@@H](C)C1 (single isomer, unassigned)"
  Display unit: "×10⁻⁶ cm/s"
  Papp B→A at 90 min, 10 μM: 22.4
- Molecule: "C=CC(=O)N1CCN(c2nc(=O)n(-c3c(C)ccnc3C(C)C)c3nc(-c4c(O)cccc4F)c(F)cc23)[C@@H](C)C1 (atropisomer, axis not shown) [AMG510, reference compound]"
  Display unit: "×10⁻⁶ cm/s"
  Papp B→A at 90 min, 10 μM: 33.5

Now consider the entry below.
Request: Given the molecule C=CC(=O)N1CCN(c2nc(=O)n(-c3c(C)ccnc3C(C)C)c3nc(-c4c(F)c(F)cc5ccoc45)c(Cl)cc23)[C@@H](C)C1 (single isomer, unassigned) , what is its reported Papp B→A at 90 min, 10 μM?
Response: 23.7
